The reported measurements were obtained from PubChem BioAssay (NCI).

- Tested on: TK-10 renal
- procedure details: NCI-60 one-dose screen, 48 h (100 = growth as untreated, 0 = no growth, -100 = all killed)
- assay context: 10 µM unless noted
About 83,000 compounds went through this panel and 20% of them were active in at least one assay; those are over-represented in the sample as a whole.
The label is Met for growth below 80% and Not met for growth equal to or exceeding 80%.

As a guide, the following entries are already answered.
> print(dat)
                                   molecule  study.system  assigned.category
1  O=C(NN1C(=O)CSC1c1cccc([N+](=O)[O-])c1)c1ccc(NC(=O)c2ccccn2)cc1 (stereo not given)   TK-10 renal            Not met
2  CC1(C)CC(=O)C2=C(C1)C(c1ccc(Cl)cc1)n1ncc(C#N)c1N2 (stereo not given)   TK-10 renal            Not met

Exam item: Determine whether this molecule shows growth lower than 80% (ties excluded): CCn1cc(C(=O)O)c(=O)c2cc(F)c(N3CCN(CC(=O)Nc4ccccc4)C(C)C3)c(F)c21 (stereo not given)
Marked response: Not met

Exam item: Determine whether this molecule shows growth lower than 80% (ties excluded): `CN(C)C1CN(C(=O)c2cc(-c3ccc4ncnc(N5CCc6cc(F)c(Cl)cc65)c4c3)cnc2N)C1`
Marked response: Met

----------
- Test system: RXF 393 renal
- procedure details: NCI-60 one-dose screen, 48 h (100 = growth as untreated, 0 = no growth, -100 = all killed)
- assay context: 10 µM unless noted
The panel holds about 83,000 compounds, 20% with a hit somewhere; the sample as a whole holds those more often.
endpoint: growth (%)
Return type: number; implicit unit %.

> print(dat)
                                   molecule  experimental.result
1            CSc1nc(-c2ccco2)c(C#N)c(=O)n1C                  112
2  CSc1ccc2c3c(n(C[C@H](O)CO)c(=O)c2c1)-c1ccccc1C3=O                 79.7
3  COC(=O)c1c(C)nc(C)c2c1C(=O)C=C(NCc1ccccc1)C2=O                 94.5
4  CCOC(=O)c1c(C)nc2ccccc2c1/C=C/c1ccc(F)cc1                  101
5  CC12OC(CC(O)C1O)n1c3ccccc3c3c4c(c5c6ccccc6n2c5c31)C(=O)N(CCN1CCCC1)C4=O (stereo not given)                 21.1

Exam item: GET /values?readout=growth&item= `O=C1/C(=C/c2cccc(Br)c2)COc2ccc(O)cc21`
Marked response: 70.6

Exam item: GET /values?readout=growth&item= `CN1c2ccccc2S(=O)(=O)n2c(SCC(=O)Nc3nc4ccc(F)cc4s3)nnc21`
Marked response: -23.2

Exam item: GET /values?readout=growth&item= `Fc1cc2[nH]ncc2c2c3c(c(-c4cn[nH]c4C(F)(F)F)nc12)CCCC3`
Marked response: -56.2

Exam item: GET /values?readout=growth&item= `S=c1ccnc[nH]1`
Marked response: 128

Exam item: GET /values?readout=growth&item= COc1ccccc1S(=O)(=O)Nc1ccc2c3c(cc(CCC(=O)NCCCCNc4cccc5c4C(=O)N(C4CCC(=O)NC4=O)C5=O)cc13)C(=O)N2C (stereo not given)
Marked response: -14.4

----------
Let's look at some molecules and their measured growth.
- System: NCI-H23 lung
- procedure details: NCI-60 one-dose screen, 48 h (100 = growth as untreated, 0 = no growth, -100 = all killed)
- assay context: 10 µM unless noted
About 83,000 compounds went through this panel and 20% of them were active in at least one assay; those are over-represented in the sample as a whole.
Return type: number; implicit unit %.

# count of solved cases: 4
> print(dat)
                        structure.as.smiles  experimental.result
1                 Cc1cccc(N=Nc2cccc(C)c2)c1                 92.5
2  CC1=Nc2cnc(Nc3ccc(N4CCCCC4)cc3)nc2Nc2ccccc21                 67.1
3  CC(=O)c1c(Nc2cccc(F)c2)[nH]c2c(Cl)cc(Cl)c(Cl)c2c1=O                 3.83
4  O=C(Cc1ccc(/C=C/C(=O)c2ncc[nH]2)cc1)Nc1cc(F)c(F)c(F)c1                 32.2

Exam item: GET /values?readout=growth&item= `O=C1/C(=C/c2ccc(Cl)cc2)CN(C(=O)C(Cl)Cl)C/C1=C\c1ccc(Cl)cc1`
Marked response: -69.2

----------
- System: HCT-116 colon
- procedure details: NCI-60 one-dose screen, 48 h (100 = growth as untreated, 0 = no growth, -100 = all killed)
- assay context: 10 µM unless noted
This is part of a sample that, as a whole, favours compounds with a hit. Of some 83,000 tested, about 20% had one in any assay.
endpoint: growth (%)
Return type: number; implicit unit %.

> print(dat)
                        structure.as.smiles  endpoint  u  experimental.result
1  O=C(c1c[nH]c2ccccc12)c1n[nH]c(=S)n1-c1ccc([N+](=O)[O-])cc1    growth  %                 90.3
2  N#Cc1ccccc1-c1ccc(CN2C(=O)S/C(=C\c3ccc(Br)cc3)C2=O)cc1    growth  %                  105
3  CC1(C)N=C(N)N=C(N)N1c1ccc(S(=O)(=O)Nc2nccs2)cc1    growth  %                  100
4  Nc1nc(C(=O)N/N=C/c2ccc(F)cc2)nn1-c1ccc(S(N)(=O)=O)cc1    growth  %                  101

Exam item: GET /values?readout=growth&item= `CC(=O)c1sc(-c2ccc(F)cc2)cc1O`
Marked response: 95.3

----------
- Tested on: MALME-3M melanoma
- procedure details: NCI-60 one-dose screen, 48 h (100 = growth as untreated, 0 = no growth, -100 = all killed)
- assay context: 10 µM unless noted
The panel holds about 83,000 compounds, 20% with a hit somewhere; the sample as a whole holds those more often.
endpoint: growth (%)
Return type: number; implicit unit %.

Exam item: GET /values?readout=growth&item= `C=C(C)[C@@H]1CC[C@]2(C(=O)Nc3ccccn3)CC[C@]3(C)[C@H](CC[C@@H]4[C@@]5(C)CCCNC(C)(C)[C@@H]5CC[C@]43C)[C@@H]12`
Marked response: -2.67

Exam item: GET /values?readout=growth&item= `COC(=O)c1ccc2c(c1)c1c(C)c3cnccc3c(C)c1n2C`
Marked response: -73.7

Exam item: GET /values?readout=growth&item= `O=C1/C(=C/c2c[nH]c(=O)[nH]c2=O)SC(=S)N1Cc1ccccc1`
Marked response: 97.6

----------
- Tested on: SK-MEL-28 melanoma
- procedure details: NCI-60 one-dose screen, 48 h
- assay context: 10 µM unless noted
Compounds without any hit were thinned out: in the full panel of roughly 83,000, 20% have a hit. Calls of active or inactive are those of the source. How the source made its calls: active means growth percent below 10; inactive means the rest.
Just give me one of these, please: TRUE = active, FALSE = inactive

As a guide, the following entries are already answered.
> print(dat)
                                   molecule  assigned.category
1  COc1ccc2c(c1)C(C)Cc1c(ncnc1-n1cnc3cc(C)ccc31)N2C (centres undefined)              FALSE
2  COc1ccc(/C=N/NC(=O)Cn2c(-c3ccc(S(C)(=O)=O)cc3)nc3ccccc32)cc1              FALSE
3  N#CC1=C(N)Oc2c(sc3c(F)cccc23)C1c1ccc([N+](=O)[O-])cc1 (centres undefined)               TRUE
4  Cc1ccc(S(=O)(=O)OCC#CCOS(=O)(=O)c2ccc(C)cc2)cc1              FALSE
5  COc1cc(-c2nccc3[nH]c(-c4cccc5[nH]ccc45)nc23)cc(OC)c1OC              FALSE

Shifting focus to the molecule that follows.
Exam item: Given `C[C@H](c1nc2ccc(C#N)cc2[nH]1)[C@H]1CC[C@H]2[C@@H]3CCC4=CC(=O)CC[C@]4(C)[C@H]3CC[C@]12C` , state the outcome it received in this test.
Marked response: FALSE

----------
- Tested on: ACHN renal
- procedure details: NCI-60 one-dose screen, 48 h
- assay context: 10 µM unless noted
The panel holds about 83,000 compounds, 20% with a hit somewhere; the sample as a whole holds those more often. The source made the active and inactive calls. How the source made its calls: active means growth percent below 10; inactive means the rest.
Just give me one of these, please: active, inactive

> print(dat)
                        structure.as.smiles  study.system  assigned.category
1  N#Cc1c(-c2ccccc2)nc2c(c(-c3ccc(Cl)cc3)nn2-c2ccccc2)c1-c1ccc([N+](=O)[O-])cc1    ACHN renal           inactive
2  CCN(CCNc1ccc(C)c2sc3cc(Cl)ccc3c(=O)c12)CC(C)(C)O    ACHN renal           inactive
3  COC(=O)c1c(C)nc(C)c2c1C(=O)C=C(NCc1ccccc1)C2=O    ACHN renal           inactive
4  N#C/C(=C\c1ccc(-c2cccc(Cl)c2)o1)C(=O)Nc1ncc(Cc2ccc(Cl)cc2)s1    ACHN renal           inactive

Exam item: Given `Cc1ccc2nc(-c3ccc(C(=O)N/N=C/c4ccc([N+](=O)[O-])cc4)cc3)[nH]c2c1` , state the outcome it received in this test.
Marked response: inactive

Exam item: Given `Nc1[nH]nc2nc(-c3ccccc3)n3c4ccccc4nc3c12` , state the outcome it received in this test.
Marked response: inactive

Exam item: Given `C=C(C)[C@@H]1CC[C@]2(CO)CC[C@]3(C)[C@H](CC[C@@H]4[C@@](C)(CCCN)[C@H](C(=C)C)CC[C@]43C)[C@@H]12` , state the outcome it received in this test.
Marked response: active

Exam item: Given `CS(=O)(=O)Nc1cc(-c2ccc3ncnc(Nc4ccc5c(cnn5Cc5ccccc5F)c4)c3c2)cnc1Cl` , state the outcome it received in this test.
Marked response: inactive

Exam item: Given `COc1ccc(-c2nc3c(c(-c4ccc(Cl)cc4)nn3-c3ccccc3)c(-c3ccccc3)c2C#N)cc1` , state the outcome it received in this test.
Marked response: inactive
